Reported Survival time values are given for each entry in this list.
tested on: Plasmodium berghei; test: Increased mean survival time in drug-sensitive Plasmodium berghei infected mice (Mus musculus) at 40 mg/kg dose; assay type: functional

Examples with answers:
get_value(item= CC(N/N=C(\S)N1CCCCCC1)c1ccccn1 (stereo unspecified) , readout=Survival time) returns 2.4 days

get_value(item= CC(N/N=C(\S)N(C)C1CCCCC1)c1ccccn1 (stereo unspecified) , readout=Survival time) returns 3.7 days

get_value(item= CC(N/N=C(\[SeH])N1CCCCCC1)c1ccccn1 (stereo unspecified) , readout=Survival time) returns 5.9 days

Further cases:
get_value(item= `C/C(=N\N=C(/[SeH])N1CC2CCC(CC2)C1)c1ccccn1` , readout=Survival time) returns 0.8 days

get_value(item= CC(N/N=C(\S)N1CCCC1)c1ccccn1 (stereo unspecified) , readout=Survival time) returns 5.2 days

get_value(item= `C/C(=N\N=C(/S)NCc1ccccc1)c1ccccn1` , readout=Survival time) returns 0.5 days

* * *

Reported Survival time values are given for each entry in this list.
system: Plasmodium berghei; assay: Increased mean survival time in drug-sensitive Plasmodium berghei infected mice (Mus musculus) at 40 mg/kg dose; format: functional
Field: numeric (days). Do not append units.

Examples with answers:
get_value(item= `C/C(=N\NC(=S)N1CCCCCC1)c1ccccn1` , readout=Survival time) returns 6.2

get_value(item= `C/C(=N\NC(=S)N1CCCC1)c1ccccn1` , readout=Survival time) returns 8.9

get_value(item= `C/C(=N\NC(=S)N(C)C)c1ccccn1` , readout=Survival time) returns 0.5

Further cases:
get_value(item= CC(N/N=C(\[SeH])N1CC2CCC(CC2)C1)c1ccccn1 (configuration not stated) , readout=Survival time) returns 0.5

get_value(item= `C/C(=N\N=C(/S)N1CCC(c2ccccc2)CC1)c1ccccn1` , readout=Survival time) returns 0.4

get_value(item= `C/C(=N\N=C(/[SeH])N1CCCCCC1)c1ccccn1` , readout=Survival time) returns 1.7

get_value(item= `C/C(=N\N=C(/S)N(C)C1CCCCC1)c1ccccn1` , readout=Survival time) returns 3.7

Where these numbers come from: ChEMBL document CHEMBL1122447
